Values from ChEMBL document CHEMBL1201862

Test system: HCC 2998
Method description: NCI tumour cell line growth inhibition, 48 h
The source made the active and inactive calls. No stated cut-off is given here; in the data, active = GI50 up to about 1.1 µM and inactive = higher.
Each entry below carries its recorded GI50.

Compound	GI50
O=C(O)CN1CCNCCN(CP(=O)(O)O)CC1	3.28 µM (inactive)

Problem: System HCC 2998. Read-out GI50. Item `N#Cc1nsnc1-c1nc(-c2nsnc2C#N)nc(-c2nsnc2C#N)n1` . Report value.
Solution: > 100 µM (inactive)

Problem: Quote GI50 with test system HCC 2998 for Oc1ccccc1C1=NOC(c2ccc(C(F)(F)F)cc2)C1 (stereo unspecified)
Solution: > 50 µM (inactive)

Problem: Lab note: record GI50 of `CCCC1(N2C(=O)c3ccc4c5c(ccc(c35)C2=O)N(C2(CCC)CCCCC2)C4=O)CCCCC1` tested on HCC 2998.
Solution: > 100 µM (inactive)

Problem: # assay system HCC 2998: give GI50 of CCOC(=O)C1C(=O)CC1(C)C (stereo unspecified)
Solution: > 10 µM (inactive)

Problem: Write GI50 of CC(C)(O)[C@@H]1CC[C@@]2(C)CCCC(O)C2(O)C1 (stereo partly specified) ; system used: HCC 2998
Solution: > 100 µM (inactive)
